system: NOMO1; assay: cell viability relative to DMSO control; higher = less cytotoxic; settings: HPLM + 10% dialyzed FBS; 48 h; 0.0211 µM
observation type: cell viability

// below: answered molecules
                                   molecule  measured_value
0         CNCC[C@H](Oc1cccc2ccccc12)c1cccs1            116%
1  C[C@@H]1CCO[C@H]2CN\3/C=C(/C(=O)NCC4=C(F)C=C(F)C=C4)C(=O)\C(=C3C(=O)N12)O            116%
2  CCCNC(=O)Nc1ccc(Oc2ncnc3cc(OC)c(OC)cc23)cc1Cl           95.7%

**Query** Requested read-out cell viability, target or system NOMO1, entry CC(C)(O)CC(=O)NCCn1ccc2ncnc(Nc3ccc(Oc4cccc(C(F)(F)F)c4)c(Cl)c3)c21
**Result** 120%

**Query** Requested read-out cell viability, target or system NOMO1, entry C=CC(=O)Nc1cc2c(Nc3ccc(F)c(Cl)c3)ncnc2cc1OCCCN1CCOCC1
**Result** 132%

**Query** Requested read-out cell viability, target or system NOMO1, entry CC(=O)Oc1ccccc1C(=O)Nc1ncc([N+](=O)[O-])s1
**Result** 107%

**Query** Requested read-out cell viability, target or system NOMO1, entry CCOC(=O)C(C)OC1=CC=CC2=C1\C=C/N(CC(=O)NC3=CC=C4OCCOC4=C3)C2=O (configuration not stated)
**Result** 97.2%

====

Readings of cell viability for the listed compounds
test system: P12-Ichikawa; test: cell viability relative to DMSO control; higher = less cytotoxic; details: RPMI 5 mM glucose + 10% FBS; 48 h; 0.000781 µM
Report the value in % with no unit label.

// below: answered compounds
>>> print(df.to_string())
                  compound_structure_string   test_system  observation_type  measured_value
0  Cc1cc2c(C(N)=O)cccc2n1-c1nc2c(c(NCc3ccccc3)n1)COCC2  P12-Ichikawa    cell viability            99.6
1  COc1cc2c(cc1OC)CN(CCc1ccc(NC(=O)c3cc(OC)c(OC)cc3NC(=O)c3cnc4ccccc4c3)cc1)CC2  P12-Ichikawa    cell viability             124

Lab note: next compound to report on.
**Query** Please report the recorded cell viability for O=C(O)c1cc(/N=N/c2ccc([S+](=O)([O-])Nc3ccccn3)cc2)ccc1O .
**Result** 108

====

tested on: SEM cells; assay: cell viability relative to DMSO control; higher = less cytotoxic; details: RPMI 5 mM glucose + 10% dialyzed FBS; 48 h; 5.12 µM
observation type: cell viability (%)
Report the value in % with no unit label.

// below: answered molecules
In [3]: df
Out[3]:
                                   molecule  observation_type  measured_value
0  COc1ccc2c(c1)CN(C)CC2c1ccc(Cl)c(Cl)c1 (stereo unspecified)    cell viability             143
1   Cc1coc2c1C(=O)C(=O)c1c-2ccc2c1CCCC2(C)C    cell viability            75.1
2  CCCNC(=O)Nc1ccc(Oc2ncnc3cc(OC)c(OC)cc23)cc1Cl    cell viability            73.3

**Query** Please report the recorded cell viability for CC(C)OC(=O)[C@H](C)N[P@](=O)(OC[C@H]1O[C@@H](N2\C=C/C(=O)NC2=O)[C@](C)(F)[C@@H]1O)OC3=CC=CC=C3 .
**Result** 86.8

**Query** Please report the recorded cell viability for Cc1cccc(Nc2ccncc2[S+](=O)([O-])NC(=O)NC(C)C)c1 .
**Result** 83.8

**Query** Please report the recorded cell viability for CN(C)CC(C)(C)CNc1nn2c(-c3ccccc3)nnc2cc1C1CCC1 .
**Result** 106

====

test system: NOMO1; assay: cell viability relative to DMSO control; higher = less cytotoxic; conditions: HPLM + 10% dialyzed FBS; 48 h; 46.1 µM
Response field label takes TRUE when cell viability is strictly below 80% and FALSE in all other cases.

Example entries begin here.
In [3]: df
Out[3]:
                                   molecule  classification
0  COC1=C(OCCCN2CCOCC2)C=CC\3=C1/N=C(/NC(=O)C4=CN=C(N)N=C4)N5CC/N=C35            TRUE
1  CCCCN(CCCC)CC(O)c1cc(Cl)cc2c1-c1ccc(Cl)cc1/C2=C/c1ccc(Cl)cc1 (stereo not given)           FALSE

**Query** Quick check: cell viability of CCOC(=O)C(C)OC1=CC=CC2=C1\C=C/N(CC(=O)NC3=CC=C4OCCOC4=C3)C2=O (stereo not given) under 80%?
**Result** FALSE

**Query** Quick check: cell viability of CN1CC(=O)N2[C@H](c3ccc4c(c3)OCO4)c3[nH]c4ccccc4c3C[C@@H]2C1=O under 80%?
**Result** TRUE

====

Readings of cell viability for the listed compounds
tested on: P12-Ichikawa; assay: cell viability relative to DMSO control; higher = less cytotoxic; details: RPMI 5 mM glucose + 10% FBS; 48 h; 0.19 µM
Report the value in % with no unit label.

**Query** Please report the recorded cell viability for CC(C(=O)O)c1ccc2c(c1)CC(=O)c1ccccc1S2 (stereo not given) .
**Result** 115

**Query** Please report the recorded cell viability for CCc1ccc(/C=C2/SC(=S)NC2=O)cc1 .
**Result** 77.7

**Query** Please report the recorded cell viability for CN1\C=N/C2=CC=C(NC3=CC(=CC=C3C)NC(=O)C4=CC(=CC=C4)C(C)(C)C#N)C=C2C1=O .
**Result** 93

**Query** Please report the recorded cell viability for Cc1csc(-c2nnc(Nc3ccc(Oc4ncccc4-c4ccnc(N)n4)cc3)c3ccccc23)c1 .
**Result** 16.7

**Query** Please report the recorded cell viability for COC(=O)C\1=C(C)\N\C(=C(/C1C2=CC=CC3=NON=C23)C(=O)OC(C)C)C (stereo not given) .
**Result** 98.8

====

tested on: NOMO1; experiment: cell viability relative to DMSO control; higher = less cytotoxic; details: RPMI 5 mM glucose + 10% dialyzed FBS; 48 h; 0.00702 µM
Readings of cell viability for the listed molecules
Report the value in % with no unit label.

// below: answered molecules
                  compound_structure_string  measured_value
0  COc1cccc2c1C(=O)c1c(O)c3c(c(O)c1C2=O)C[C@@](O)(C(=O)CO)C[C@@H]3O[C@H]1C[C@H](N)[C@H](O)[C@H](C)O1             105
1  CCCCCCCCCCCCCC(=O)N[C@H](CO)[C@H](O)c1ccc([N+](=O)[O-])cc1            95.7

Lab note: next molecule to report on.
**Query** Please report the recorded cell viability for CN(C)CC(C)(C)CNc1nn2c(-c3ccccc3)nnc2cc1C1CCC1 .
**Result** 103

====

test system: P12-Ichikawa; assay: AUC of viability dose-response curve (% viability x log10 dose units); higher = less sensitive; conditions: RPMI 5 mM glucose + 10% FBS; 48 h
Readings of AUC of viability dose-response curve for the listed compounds
Returns: the value as a bare number; no unit string appended.

// below: answered compounds
compound	AUC of viability dose-response curve
Nc1ccc([S+](=O)([O-])Nc2ccnn2-c2ccccc2)cc1	455
C[C@@H](CN1CC(=O)NC(=O)C1)N1CC(=O)NC(=O)C1	317
CCCCCCCCCCCCCC(=O)N[C@H](CO)[C@H](O)c1ccc([N+](=O)[O-])cc1	328
O=C(O)c1cc(/N=N/c2ccc([S+](=O)([O-])Nc3ccccn3)cc2)ccc1O	468
CN1CC(=O)N2[C@H](c3ccc4c(c3)OCO4)c3[nH]c4ccccc4c3C[C@@H]2C1=O	440
C=C[C@H]1CN2CCC1C[C@@H]2C(O)c1ccnc2ccc(OC)cc12 (some centres undefined)	470
CCc1ccc(/C=C2/SC(=S)NC2=O)cc1	386
COc1cc[nH]c2ncc(C(=O)C(=O)N3CCN(C(=O)c4ccccc4)C[C@H]3C)c1-2	463

**Query** Please report the recorded AUC of viability dose-response curve for Cc1cnc(Nc2ccc(F)cc2Cl)nc1-c1c[nH]c(C(=O)N[C@H](CO)c2cccc(Cl)c2)c1 .
**Result** 384

**Query** Please report the recorded AUC of viability dose-response curve for CN(C)CC(C)(C)CNc1nn2c(-c3ccccc3)nnc2cc1C1CCC1 .
**Result** 405

**Query** Please report the recorded AUC of viability dose-response curve for CNc1nc(Nc2cnn([C@H]3CCN(C4COC4)C[C@@H]3F)c2Cl)ncc1C(F)(F)F .
**Result** 400

**Query** Please report the recorded AUC of viability dose-response curve for COc1ccc2c(c1)CN(C)CC2c1ccc(Cl)c(Cl)c1 (centres undefined) .
**Result** 471

**Query** Please report the recorded AUC of viability dose-response curve for C[C@]12CC[C@H]3[C@@H](CCC4=CC(=O)CC[C@@H]43)[C@@H]1CC[C@@H]2OC(=O)CCc1ccccc1 .
**Result** 474

**Query** Please report the recorded AUC of viability dose-response curve for N[C@@H]1CONC1=O .
**Result** 474

**Query** Please report the recorded AUC of viability dose-response curve for Cc1ccc([S+](=O)([O-])OCC(=O)Nc2ccc(C(=O)O)c(O)c2)cc1 .
**Result** 469

**Query** Please report the recorded AUC of viability dose-response curve for NC(=O)c1ccc(N(C(N)=O)c2c(F)cccc2F)nc1-c1ccc(F)cc1F .
**Result** 468

**Query** Please report the recorded AUC of viability dose-response curve for CCOC(=O)\C1=C\[C@]2(CC)CCCN3CCC4=C([C@H]23)[N]1C5=C4C=CC=C5 .
**Result** 470

**Query** Please report the recorded AUC of viability dose-response curve for CC[C@@H]([C@H](C)O)n1ncn(-c2ccc(N3CCN(c4ccc(OCC5CO[C@@](Cn6cncn6)(c6ccc(F)cc6F)C5)cc4)CC3)cc2)c1=O (some centres undefined) .
**Result** 447

**Query** Please report the recorded AUC of viability dose-response curve for O=C(O)c1cccnc1Nc1cccc(C(F)(F)F)c1 .
**Result** 451
